Origin of measurements: the supplement of paper PMC12042874

Experiment: amyloid nucleation score (Sup35N fusion, yeast selection) (log enrichment); library NNK3; higher = more nucleation; inactive = no reads after selection;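 note: zero at mode of non-aggregating sequences after 7 days selection at 30°C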
measurement type: amyloid nucleation score

Check out these entries, answers already filled in.
INSERT INTO measurements (substance, measurement_type, obs_value) VALUES
  ('YVRLWVEDWETFSKMGSQIL', 'amyloid nucleation score', 'inactive'),
  ('LATLLTMWRGSLRYNPLKRL', 'amyloid nucleation score', -0.354),
  ('LFTLTWSWQLKGFFYYHGYV', 'amyloid nucleation score', 'inactive'),
  ('ALTHHVVYLMAGKNVTTS', 'amyloid nucleation score', 'inactive');

Look up amyloid nucleation score for the entries below, preserving their order.
1. SLGRFDLMCHTKYLSTTVVF
2. FSGTIGILFFMTWSTVLPWG
3. LVHIGFWCEVVQPLSCTDTS
4. FHTWISGLPEVHWGVLEVRW

Result block:
1. inactive
2. inactive
3. 0.028
4. inactive

Take each entry in turn and give its amyloid nucleation score.
1. TFCVQYESRFRFQESESLHM
2. ILASKALQQLLQGLTLV

Result block:
inactive
-0.375

Provide each entry's amyloid nucleation score from the list below.
1. CNMRVERLMSLFSL
2. LFMEYWSVATCRNSGIVFIV
3. YLIYCL
4. WPTFDCRRM

Result block:
["inactive", "inactive", "inactive", "inactive"]
